Molecular target: T1, EsCas13d, nuclease-dead (Eubacterium siraeum, UniProt B0MS50, R295A;H300A;R849A;H854A)
T1 sequence: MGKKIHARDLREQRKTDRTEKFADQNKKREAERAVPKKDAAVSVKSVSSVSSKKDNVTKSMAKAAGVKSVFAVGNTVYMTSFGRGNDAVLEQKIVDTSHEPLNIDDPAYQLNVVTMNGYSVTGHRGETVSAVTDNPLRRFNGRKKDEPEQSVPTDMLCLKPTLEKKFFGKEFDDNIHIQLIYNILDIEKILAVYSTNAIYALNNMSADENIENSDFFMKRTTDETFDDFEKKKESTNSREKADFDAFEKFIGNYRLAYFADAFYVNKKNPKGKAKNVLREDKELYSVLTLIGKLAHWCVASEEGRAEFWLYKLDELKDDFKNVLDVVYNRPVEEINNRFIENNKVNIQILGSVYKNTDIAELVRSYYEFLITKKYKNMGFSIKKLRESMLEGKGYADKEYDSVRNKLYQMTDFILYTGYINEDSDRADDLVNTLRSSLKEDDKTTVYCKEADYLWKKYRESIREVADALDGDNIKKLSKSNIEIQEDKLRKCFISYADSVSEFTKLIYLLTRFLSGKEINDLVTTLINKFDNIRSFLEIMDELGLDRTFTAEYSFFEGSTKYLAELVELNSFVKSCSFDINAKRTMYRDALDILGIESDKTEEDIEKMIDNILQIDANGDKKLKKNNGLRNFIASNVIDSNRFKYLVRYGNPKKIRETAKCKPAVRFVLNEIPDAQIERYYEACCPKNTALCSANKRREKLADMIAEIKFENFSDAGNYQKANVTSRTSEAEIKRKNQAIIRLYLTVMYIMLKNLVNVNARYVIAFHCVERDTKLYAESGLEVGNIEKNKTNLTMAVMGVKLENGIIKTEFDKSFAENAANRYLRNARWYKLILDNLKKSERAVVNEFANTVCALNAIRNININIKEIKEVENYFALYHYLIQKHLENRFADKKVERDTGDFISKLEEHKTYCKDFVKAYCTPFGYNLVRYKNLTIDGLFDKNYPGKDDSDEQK
Experiment: crRNA (strand 1, pre-loaded); Mg2+; 40 mM Tris-HCl pH 7.5, 150 mM NaCl, 6 mM MgCl2, 1 mM DTT, 0.1% Tween-20, 0.2 mg/ml BSA; 25 C; 10 min per concentration, then washed
Conditions: tags: His6-TwinStrep-SUMO cleaved; N-terminal SNAP kept (SNAP-Surface 488); label: 3' end held by stalled T7 RNA polymerase
pKd: −log10 of the molar value.
pKd values for the binders below.
observed.property: pKd

target 1 insU 3' of 6,insA 3' of 4 (mixed) RNA 1: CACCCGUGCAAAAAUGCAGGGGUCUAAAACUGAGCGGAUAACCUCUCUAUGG RNA 2: GGGAAUGGAUCCACAUCUACGAAUUCGUACCAUAGAGAGGUUAUCCUGCAUCACCGAGAUCGGAAGAGCACACGU
8.10
target 2 MT 5'PFS CGG 3'PFS CAG (mixed) RNA 1: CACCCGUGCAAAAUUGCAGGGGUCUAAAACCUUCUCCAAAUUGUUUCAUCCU RNA 2: GGGAAUGGAUCCACAUCUACGAAUUCCGGAGGAUGAAACAAUUUGGAGAAGCAGAGAUCGGAAGAGCACACGU
8.37
target 1 U10A,A16G (mixed) RNA 1: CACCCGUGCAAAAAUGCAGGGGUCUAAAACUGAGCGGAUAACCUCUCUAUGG RNA 2: GGGAAUGGAUCCACAUCUACGAAUUCGUACCAUAGGGAGGUAAUCCGCUCACCGAGAUCGGAAGAGCACACGU
7.42
target 1 MT 5'PFS UUA 3'PFS ACA (mixed) RNA 1: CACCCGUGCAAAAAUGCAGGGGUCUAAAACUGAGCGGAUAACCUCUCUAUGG RNA 2: GGGAAUGGAUCCACAUCUACGAAUUCUUACCAUAGAGAGGUUAUCCGCUCAACAAGAUCGGAAGAGCACACGU
7.43
target 1 insA 3' of 3,insG 3' of 1 (mixed) RNA 1: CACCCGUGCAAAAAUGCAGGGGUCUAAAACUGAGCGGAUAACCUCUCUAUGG RNA 2: GGGAAUGGAUCCACAUCUACGAAUUCGUACCAUAGAGAGGUUAUCCGCUACAGCCGAGAUCGGAAGAGCACACGU
8.24
target 1 U11A,G13A (mixed) RNA 1: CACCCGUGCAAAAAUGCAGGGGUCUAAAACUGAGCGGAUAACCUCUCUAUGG RNA 2: GGGAAUGGAUCCACAUCUACGAAUUCGUACCAUAGAGAAGAUAUCCGCUCACCGAGAUCGGAAGAGCACACGU
7.41
target 3 insU 3' of 19 (mixed) RNA 1: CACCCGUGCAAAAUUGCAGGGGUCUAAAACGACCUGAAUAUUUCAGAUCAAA RNA 2: GGGAAUGGAUCCACAUCUACGAAUUCGUUUUUGUAUCUGAAAUAUUCAGGUCUGCAGAUCGGAAGAGCACACGU
7.11
target 1 insG 3' of 10,insA 3' of 5 (mixed) RNA 1: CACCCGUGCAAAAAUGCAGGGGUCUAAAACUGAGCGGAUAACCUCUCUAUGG RNA 2: GGGAAUGGAUCCACAUCUACGAAUUCGUACCAUAGAGAGGUUGAUCCGACUCACCGAGAUCGGAAGAGCACACGU
7.52
